Measured inhibition values are reported for all entries that follow.
biological target: Epidermal growth factor receptor (Homo sapiens); assay: Inhibition of EGFR expressed in Escherichia coli or baculovirus-infected insect cells at 400 uM by TR-FRET assay
Your answer is read as %, so omit the unit and give the number.

O=C(Nc1ccccc1)Nc1ccccc1 ... 0
c1ccc(Nc2ncccn2)cc1 ... 0
Nc1ncccc1OCc1ccccc1 ... 9

molecule `Nc1[nH]nc2ccccc12` , inhibition observed: 0

molecule `c1ccc(-c2cnc3nccnn23)cc1` , inhibition observed: 8

molecule `O=C(Nc1ccccc1)Nc1cccc(C(F)(F)F)c1` , inhibition observed: 4

molecule `c1cnc2[nH]ccc2c1` , inhibition observed: 0

molecule `Nc1ccc2ncc(-c3ccccc3)n2n1` , inhibition observed: 36

molecule `c1ccc(Nc2ccccc2)cc1` , inhibition observed: 5

molecule `c1n[nH]c2c1CCCC2` , inhibition observed: 25

###

Biological target: Inhibitor of nuclear factor kappa-B kinase subunit beta (Homo sapiens)
Sequence (whole entry): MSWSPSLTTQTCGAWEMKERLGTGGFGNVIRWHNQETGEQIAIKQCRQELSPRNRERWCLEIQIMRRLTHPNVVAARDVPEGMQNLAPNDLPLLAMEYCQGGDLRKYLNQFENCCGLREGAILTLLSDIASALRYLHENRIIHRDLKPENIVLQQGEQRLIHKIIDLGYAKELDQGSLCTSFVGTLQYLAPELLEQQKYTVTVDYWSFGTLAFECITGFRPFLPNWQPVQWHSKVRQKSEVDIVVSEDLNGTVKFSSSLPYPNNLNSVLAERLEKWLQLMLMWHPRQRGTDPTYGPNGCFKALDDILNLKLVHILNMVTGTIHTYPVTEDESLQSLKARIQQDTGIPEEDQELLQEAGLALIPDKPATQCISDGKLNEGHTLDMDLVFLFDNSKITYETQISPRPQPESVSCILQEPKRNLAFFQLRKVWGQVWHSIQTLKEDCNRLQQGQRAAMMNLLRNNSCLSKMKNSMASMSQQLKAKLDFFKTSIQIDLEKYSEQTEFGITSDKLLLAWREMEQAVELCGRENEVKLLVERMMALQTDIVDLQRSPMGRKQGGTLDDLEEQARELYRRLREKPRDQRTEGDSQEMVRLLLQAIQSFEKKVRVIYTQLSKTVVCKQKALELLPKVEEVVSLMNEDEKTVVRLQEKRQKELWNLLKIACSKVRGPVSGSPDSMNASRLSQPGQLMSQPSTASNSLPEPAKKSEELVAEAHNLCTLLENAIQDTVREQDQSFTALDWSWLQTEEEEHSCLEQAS
Test: Inhibition of IKK-beta expressed in Escherichia coli or baculovirus-infected insect cells at 667 uM by TR-FRET assay
QUANTITY: inhibition (%)
Your answer is read as %, so omit the unit and give the number.

Cc1ccc(NC(=O)Nc2cccc(C(F)(F)F)c2)cc1 ... 0
Cc1ccc(NC(=O)Nc2cc(C(C)(C)C)nn2-c2ccccc2)cc1 ... 3
c1ccc(Nc2ncccn2)cc1 ... 8

compound `c1ccc(Nc2ccccc2)cc1` , inhibition observed: 0

compound `c1n[nH]c2c1CCCC2` , inhibition observed: 0

compound `Nc1[nH]cnc2ncnc1-2` , inhibition observed: 22

compound `O=C(Nc1ccccc1)Nc1cccc(C(F)(F)F)c1` , inhibition observed: 0

###

Biological target: Phosphatidylinositol 4,5-bisphosphate 3-kinase catalytic subunit delta isoform (Homo sapiens)
Sequence (whole entry): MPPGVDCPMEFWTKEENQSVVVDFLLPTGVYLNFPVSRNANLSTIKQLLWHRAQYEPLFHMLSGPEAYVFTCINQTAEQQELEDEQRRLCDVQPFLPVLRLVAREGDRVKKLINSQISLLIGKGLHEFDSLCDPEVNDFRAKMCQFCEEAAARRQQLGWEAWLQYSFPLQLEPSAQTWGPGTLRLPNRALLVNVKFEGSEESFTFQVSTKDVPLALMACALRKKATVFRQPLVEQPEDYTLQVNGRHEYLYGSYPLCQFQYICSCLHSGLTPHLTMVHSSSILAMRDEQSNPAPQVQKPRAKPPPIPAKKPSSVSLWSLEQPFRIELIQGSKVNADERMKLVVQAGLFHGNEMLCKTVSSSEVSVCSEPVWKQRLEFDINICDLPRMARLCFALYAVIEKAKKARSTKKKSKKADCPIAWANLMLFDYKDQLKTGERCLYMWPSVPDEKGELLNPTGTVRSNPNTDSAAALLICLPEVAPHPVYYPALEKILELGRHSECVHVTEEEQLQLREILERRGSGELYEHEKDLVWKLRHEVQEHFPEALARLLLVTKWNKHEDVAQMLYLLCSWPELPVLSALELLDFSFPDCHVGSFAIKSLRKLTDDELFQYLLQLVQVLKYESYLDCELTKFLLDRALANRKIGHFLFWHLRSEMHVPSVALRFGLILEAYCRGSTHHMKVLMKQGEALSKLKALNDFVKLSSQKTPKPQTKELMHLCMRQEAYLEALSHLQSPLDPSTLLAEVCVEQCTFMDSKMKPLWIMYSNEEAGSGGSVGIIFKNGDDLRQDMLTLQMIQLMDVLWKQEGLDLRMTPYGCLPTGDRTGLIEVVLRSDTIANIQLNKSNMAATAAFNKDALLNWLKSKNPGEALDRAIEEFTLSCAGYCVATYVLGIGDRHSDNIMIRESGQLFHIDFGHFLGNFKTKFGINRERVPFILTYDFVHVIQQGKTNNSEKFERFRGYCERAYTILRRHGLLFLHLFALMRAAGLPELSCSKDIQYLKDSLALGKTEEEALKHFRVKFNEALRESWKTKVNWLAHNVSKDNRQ
Experiment: Inhibition of PI3Kdelta expressed in Escherichia coli or baculovirus-infected insect cells using gamma-[33P]ATP at 400 uM by scintillation proximity assay
Measured inhibition values are reported for all entries that follow.
Your answer is read as %, so omit the unit and give the number.

Nc1ncccc1OCc1ccccc1 ... 36

molecule `c1cnc2[nH]ccc2c1` , inhibition observed: 22

molecule `Cc1ccc(NC(=O)Nc2cccc(C(F)(F)F)c2)cc1` , inhibition observed: 8

molecule `Nc1[nH]cnc2ncnc1-2` , inhibition observed: 68

molecule c1ccc2[nH]ncc2c1 [INDAZOLE] , inhibition observed: 10

molecule `c1n[nH]c2c1CCCC2` , inhibition observed: 16

molecule `c1ccc(-c2cnc3nccnn23)cc1` , inhibition observed: 42

molecule `Nc1n[nH]c2ncccc12` , inhibition observed: 18

molecule `O=C(Nc1ccccc1)Nc1ccccc1` , inhibition observed: 11

###

target: Rho-associated protein kinase 1 (Homo sapiens); assay: Inhibition of ROCK1 expressed in Escherichia coli or baculovirus-infected insect cells at 400 uM by IMAP assay
Measured inhibition values are reported for all entries that follow.
Your answer is read as %, so omit the unit and give the number.

Nc1[nH]nc2ccccc12 ... 65
Cc1ccc(NC(=O)Nc2cccc(C(F)(F)F)c2)cc1 ... 7
Nc1ncccc1OCc1ccccc1 ... 64
c1cnc2[nH]ccc2c1 ... 76
CC(C)(C)c1cc(NC(=O)Nc2ccccc2)no1 ... 9

compound `Cc1ccc(C(=O)NC2CC2)cc1F` , inhibition observed: 3

compound `Cc1ccc(NC(=O)Nc2cc(C(C)(C)C)nn2-c2ccccc2)cc1` , inhibition observed: 6

###

target: Mitogen-activated protein kinase 8 (Homo sapiens, UniProt P45983); experiment: Inhibition of JNK1 expressed in Escherichia coli or baculovirus-infected insect cells at 667 uM by TR-FRET assay
Sequence (P45983 whole entry): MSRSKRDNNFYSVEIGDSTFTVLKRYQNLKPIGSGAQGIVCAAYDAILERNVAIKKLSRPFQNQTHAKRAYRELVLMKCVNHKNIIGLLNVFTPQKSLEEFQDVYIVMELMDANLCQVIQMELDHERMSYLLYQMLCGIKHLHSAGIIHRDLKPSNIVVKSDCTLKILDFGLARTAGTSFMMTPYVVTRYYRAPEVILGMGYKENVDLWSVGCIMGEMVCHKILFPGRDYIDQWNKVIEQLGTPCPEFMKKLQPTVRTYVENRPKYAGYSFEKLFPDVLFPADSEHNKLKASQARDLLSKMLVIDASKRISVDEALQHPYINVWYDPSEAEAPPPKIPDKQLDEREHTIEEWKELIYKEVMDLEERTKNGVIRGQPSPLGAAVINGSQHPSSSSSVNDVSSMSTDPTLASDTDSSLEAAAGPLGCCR
The label depends only on inhibition: satisfied if it is at least 10%, not satisfied if it is smaller.

Reference set (3 entries):
c1ccc(-c2cnc3nccnn23)cc1 ... satisfied
c1ccc2[nH]ncc2c1 [INDAZOLE] ... satisfied
c1ccc(Nc2ncccn2)cc1 ... satisfied

Determine whether this compound has inhibition no lower than 10%: `c1n[nH]c2c1CCCC2`
satisfied

Determine whether this compound has inhibition no lower than 10%: `Nc1ccc2ncc(-c3ccccc3)n2n1`
satisfied

Determine whether this compound has inhibition no lower than 10%: `Cc1ccc(NC(=O)Nc2cc(C(C)(C)C)nn2-c2ccccc2)cc1`
not satisfied

Determine whether this compound has inhibition no lower than 10%: `Nc1n[nH]c2ncccc12`
satisfied

Determine whether this compound has inhibition no lower than 10%: `c1ccc(Nc2ccccc2)cc1`
not satisfied

Determine whether this compound has inhibition no lower than 10%: `Nc1[nH]nc2ccccc12`
satisfied

Determine whether this compound has inhibition no lower than 10%: `Nc1[nH]cnc2ncnc1-2`
satisfied

Determine whether this compound has inhibition no lower than 10%: `Cc1ccc(C(=O)NC2CC2)cc1F`
satisfied

Determine whether this compound has inhibition no lower than 10%: `O=C(Nc1ccccc1)Nc1ccccc1`
not satisfied

Determine whether this compound has inhibition no lower than 10%: `Nc1ncccc1OCc1ccccc1`
satisfied

###

target: Aurora kinase B (Homo sapiens) (UniProt Q96GD4); experiment: Inhibition of AurB expressed in Escherichia coli or baculovirus-infected insect cells at 400 uM by IMAP assay
Sequence (Q96GD4 whole entry): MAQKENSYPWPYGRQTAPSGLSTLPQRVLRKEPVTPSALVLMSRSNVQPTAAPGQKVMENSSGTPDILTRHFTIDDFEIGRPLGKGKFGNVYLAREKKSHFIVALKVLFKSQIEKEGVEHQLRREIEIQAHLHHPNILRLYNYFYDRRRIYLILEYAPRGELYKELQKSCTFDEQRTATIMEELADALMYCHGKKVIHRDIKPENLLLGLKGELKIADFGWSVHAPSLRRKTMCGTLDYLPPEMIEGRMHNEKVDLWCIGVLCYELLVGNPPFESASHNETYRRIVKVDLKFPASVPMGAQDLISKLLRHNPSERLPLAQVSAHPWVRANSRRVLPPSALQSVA
The label depends only on inhibition: YES if it is at least 30%, NO if it is smaller.

Reference set (5 entries):
Nc1[nH]cnc2ncnc1-2 ... YES
c1cnc2[nH]ccc2c1 ... YES
Nc1n[nH]c2ncccc12 ... YES
c1ccc2[nH]ncc2c1 ... YES
Cc1ccc(NC(=O)Nc2cccc(C(F)(F)F)c2)cc1 ... NO

Determine whether this compound has inhibition no lower than 30%: `Cc1ccc(C(=O)NC2CC2)cc1F`
NO

Determine whether this compound has inhibition no lower than 30%: `c1ccc(-c2cnc3nccnn23)cc1`
NO

Determine whether this compound has inhibition no lower than 30%: `Cc1ccc(NC(=O)Nc2cc(C(C)(C)C)nn2-c2ccccc2)cc1`
NO

Determine whether this compound has inhibition no lower than 30%: `CC(C)(C)c1cc(NC(=O)Nc2ccccc2)no1`
YES

Determine whether this compound has inhibition no lower than 30%: `Nc1[nH]nc2ccccc12`
YES

Determine whether this compound has inhibition no lower than 30%: `c1ccc(Nc2ncccn2)cc1`
YES

Determine whether this compound has inhibition no lower than 30%: `Nc1ccc2ncc(-c3ccccc3)n2n1`
YES

Determine whether this compound has inhibition no lower than 30%: `Nc1ncccc1OCc1ccccc1`
YES

Determine whether this compound has inhibition no lower than 30%: `c1n[nH]c2c1CCCC2`
NO

Determine whether this compound has inhibition no lower than 30%: `O=C(Nc1ccccc1)Nc1cccc(C(F)(F)F)c1`
NO
